The following molecules are listed with their measured pIC50 values.
Biological target: human TLR7 (Homo sapiens, UniProt Q9NYK1)
Sequence (Q9NYK1 27-1049): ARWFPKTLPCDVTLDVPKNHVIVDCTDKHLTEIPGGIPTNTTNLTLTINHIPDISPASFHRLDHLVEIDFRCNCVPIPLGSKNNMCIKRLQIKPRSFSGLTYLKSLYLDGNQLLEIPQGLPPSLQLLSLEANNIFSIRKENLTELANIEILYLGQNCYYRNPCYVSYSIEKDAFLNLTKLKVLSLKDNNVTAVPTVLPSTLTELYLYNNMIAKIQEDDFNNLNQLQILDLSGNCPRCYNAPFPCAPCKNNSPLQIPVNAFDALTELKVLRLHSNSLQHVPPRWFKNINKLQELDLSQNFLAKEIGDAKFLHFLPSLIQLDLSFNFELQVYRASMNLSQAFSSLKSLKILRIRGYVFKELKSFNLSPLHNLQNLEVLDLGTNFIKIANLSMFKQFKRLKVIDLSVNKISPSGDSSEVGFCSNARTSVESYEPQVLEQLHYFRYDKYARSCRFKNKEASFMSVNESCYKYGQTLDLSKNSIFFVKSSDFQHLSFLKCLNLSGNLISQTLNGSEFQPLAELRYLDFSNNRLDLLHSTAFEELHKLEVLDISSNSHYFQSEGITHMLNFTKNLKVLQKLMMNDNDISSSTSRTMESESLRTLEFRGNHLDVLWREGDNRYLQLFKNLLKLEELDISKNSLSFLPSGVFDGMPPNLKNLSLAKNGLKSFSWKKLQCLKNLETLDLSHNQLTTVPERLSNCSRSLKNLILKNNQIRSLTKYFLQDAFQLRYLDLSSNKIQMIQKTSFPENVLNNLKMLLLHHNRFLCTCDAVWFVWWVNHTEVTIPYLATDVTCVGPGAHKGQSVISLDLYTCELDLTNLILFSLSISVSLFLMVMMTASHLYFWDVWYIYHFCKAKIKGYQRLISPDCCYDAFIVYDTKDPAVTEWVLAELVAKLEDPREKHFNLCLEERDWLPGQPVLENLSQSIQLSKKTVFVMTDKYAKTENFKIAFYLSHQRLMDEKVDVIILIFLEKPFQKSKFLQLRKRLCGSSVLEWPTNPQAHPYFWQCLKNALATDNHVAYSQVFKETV
Experiment: TLR7 inhibition reporter assay (HEK-Blue cells, SEAP reporter, gardiquimod stimulation)
Details: HEK-Blue cells overexpressing human TLR7, SEAP reporter, gardiquimod 7.5 μM
pIC50: −log10 of the molar value.

molecule	pIC50
COc1ccc(-c2[nH]c3ccc(C4CCC5CC(C4)N5)cc3c2C(C)C)cc1OC (stereo not shown)	7.43
Cc1cc(-c2[nH]c3ccc(C4CNC4)cc3c2C(C)C)cn2ncnc12	9.36
COc1cc(-c2[nH]c3ccc(C4CN(C)C4)cc3c2C(C)C)cn2ncnc12	7.55
Cc1cc(-c2[nH]c3ccc(C4CCCN(Cc5c[nH]c(C)n5)C4)cc3c2C(C)C)cc(C)n1 (stereo not shown) [Example 247]	8.10
COc1cc(-c2[nH]c3ccc(C4CCC(N)CC4)cc3c2C(C)C)cn2ncnc12 (single isomer, unassigned) [Example 2]	9.43
Cc1cc(-c2[nH]c3ccc(C4CCCNC4)cc3c2C(C)C)ccn1 (stereo not shown) [Example 184]	7.92
COc1cc(-c2[nH]c3ccc(CCN4CCN(C)CC4)cc3c2C(C)C)cn2ncnc12	8.70
Cc1c(-c2[nH]c3ccc(C4CCC(NC5COC5)CC4)cc3c2C(C)C)cn(C)c(=O)c1C (stereo not shown) [Example 478]	7.70
CCc1c(-c2ccnc(C)c2)[nH]c2ccc(CNC(=O)CCN(C)C)cc12	6.02
Cc1c(-c2[nH]c3ccc(C4CCC(NC5CC5)CC4)cc3c2C(C)C)cn2ncnc2c1C (stereo not shown) [Example 17]	9.14
Cc1c(-c2[nH]c3ccc(C4CC(N(C)CCS(C)(=O)=O)C4)cc3c2C(C)C)cn2ncnc2c1C (stereo not shown) [Example 582]	8.52
Cc1c(-c2[nH]c3ccc(C4CCC(N5CC(CO)(CO)C5)CC4)cc3c2C(C)C)cn2ncnc2c1C (single isomer, unassigned) [Example 27]	8.70
Cc1c(-c2[nH]c3ccc(C4CN(C(C)C)C4)cc3c2C(C)C)cn2ncnc2c1C	8.05
CC(C)c1c(-c2ccnc3[nH]ncc23)[nH]c2ccc(/C=C/C3CCNCC3)cc12	7.89
Cc1cc(-c2[nH]c3ccc(C4CCC(N5CCC(F)(F)CC5)CC4)cc3c2C(C)C)cn(C)c1=O (stereo not shown) [Example 465]	8.52
CCN(C)C1CCC(c2ccc3[nH]c(-c4cc(C)c5ncnn5c4)c(C(C)C)c3c2)CC1 (stereo not shown) [Example 62]	9.01
